Recorded values, source patent US20230242616A1.

Tested on: human monocyte-derived macrophages
protocol: cells
conditionParameters: Macrophage, read-out: IC50 of MIF-triggered Dil-oxLDL uptake
parameter: pIC50
Quick note: pIC50 values are minus log10 of concentrations in mol/L.

Need pIC50 of c1cc(CN2CCCNCCNCCCNCC2)ccc1CN1CCCNCCNCCCNCC1 [AMD3100, reference compound] , thanks.
7.31
